The measurements presented in this section are drawn from ChEMBL document CHEMBL1148803.

Procedure text: Binding affinity to beta amyloid protein 1-40 by fluorescence titration
Set-up: species or system Homo sapiens
pKd: −log10 of the molar value.
Quantity name: pKd

# Compound, Reported measurement
measured = [
    ("FC(F)(F)Oc1ccc(/C=C/c2ccc(/C=C/c3ccc(OC(F)(F)F)cc3)cc2)cc1", 8.00),
    ("FC(F)(F)Oc1cccc(/C=C/c2ccc(/C=C/c3cccc(OC(F)(F)F)c3)cc2)c1", 7.80),
    ("O=C(O)c1cc(/C=C/c2ccc(/C=C/c3ccc(O)c(C(=O)O)c3)c(F)c2)ccc1O", 5.47),
    ("Oc1ccc(/C=C/c2ccc(/C=C/c3ccc(O)cc3)cc2)cc1", 7.96),
    ("FC(F)(F)c1ccc(/C=C/c2ccc(/C=C/c3ccc(C(F)(F)F)cc3)cc2)cc1", 8.02),
]

(A) O=C(O)c1cc(/C=C/c2c(F)c(F)c(/C=C/c3ccc(O)c(C(=O)O)c3)c(F)c2F)ccc1O
(B) FC(F)(F)c1cccc(/C=C/c2ccc(/C=C/c3cccc(C(F)(F)F)c3)cc2)c1
(C) Oc1ccc(/C=C/c2c(F)c(F)c(/C=C/c3ccc(O)cc3)c(F)c2F)cc1
(D) Cc1ccc2c(c1)sc(-c1ccc(N(C)C)cc1)[n+]2C [THIOFLAVIN T]
stdin: Order the records so the highest pKd appears first and the lowest last. Submit the labels in the order that the ranking request calls for.
stdout: C, A, B, D
